molecular target: HLA-B*15:17; experiment: IEDB peptide-MHC binding, purified MHC/competitive/fluorescence; filed as Kd, often an IC50 or EC50 that approximates it; bounds were set here for any values at or beyond the usual limits of such assays; settings: source organism: Vibrio vulnificus YJ016
pKd: −log10 of the molar value.
Recorded Endpoint: pKd

Query: Please look up its pKd: `PHPVVVRTL`
Response: ≤ 4.70

###

molecular target: HLA-B*35:01; assay: IEDB peptide-MHC binding, purified MHC/competitive/fluorescence; filed as Kd, often an IC50 or EC50 that approximates it; bounds were set here for any values at or beyond the usual limits of such assays; settings: source organism: Mycobacterium tuberculosis C
Recorded Endpoint: Kd (nM)
Entry rule: numbers only, all in nM.

Query: Report Kd for `LMLADHPEY` tested on HLA-B*35:01.
Response: 18.6

###

target: HLA-A*26:01; assay: IEDB peptide-MHC binding, purified MHC/direct/fluorescence; filed as Kd, often an IC50 or EC50 that approximates it; bounds were set here for any values at or beyond the usual limits of such assays; settings: source organism: Cryptosporidium parvum Iowa II
Recorded Endpoint: Kd

Query: Report Kd for `TVFRNQNRV` tested on HLA-A*26:01.
Response: ≥ 20 µM

###

biological target: HLA-A*11:01; assay: IEDB peptide-MHC binding, purified MHC/competitive/radioactivity; filed as Kd, often an IC50 or EC50 that approximates it; bounds were set here for any values at or beyond the usual limits of such assays; conditions: source organism: Vaccinia virus WR
Recorded Endpoint: pKd
// pKd: -log10(molar conc.)

See these solved cases before continuing.
IVTFRERYSY
6.84
IVPEFAKQY
4.93

Query: Please look up its pKd: `KAPNVISSK`
Response: 8.15

Query: Please look up its pKd: `CLLAISAVY`
Response: 5.30

###

target: HLA-B*15:01; test: IEDB peptide-MHC binding, purified MHC/competitive/radioactivity; filed as Kd, often an IC50 or EC50 that approximates it; bounds were set here for any values at or beyond the usual limits of such assays; settings: source organism: Dengue virus 3 Sri Lanka/1266/2000
Recorded Endpoint: pKd
// pKd: -log10(molar conc.)

Query: Please look up its pKd: `MILPAALAF`
Response: 8.16

###

molecular target: HLA-B*07:02; experiment: IEDB peptide-MHC binding, purified MHC/direct/fluorescence; filed as Kd, often an IC50 or EC50 that approximates it; bounds were set here for any values at or beyond the usual limits of such assays; conditions: source organism: Camelpox virus M-96
pKd: −log10 of the molar value.
Recorded Endpoint: pKd

LTFLHTLYK
≤ 4.70

Consider now this further sequence.
Query: Please look up its pKd: `ATNDGLIKK`
Response: ≤ 4.70

###

target: HLA-A*69:01; experiment: IEDB peptide-MHC binding, purified MHC/direct/fluorescence; filed as Kd, often an IC50 or EC50 that approximates it; bounds were set here for any values at or beyond the usual limits of such assays; settings: source organism: Pseudomonas aeruginosa UCBPP-PA14
Recorded Endpoint: Kd

Query: Please look up its Kd: `AYGSRFHEW`
Response: ≥ 20 µM

###

molecular target: HLA-B*40:01; assay: IEDB peptide-MHC binding, purified MHC/direct/fluorescence; filed as Kd, often an IC50 or EC50 that approximates it; bounds were set here for any values at or beyond the usual limits of such assays; details: source organism: Vibrio parahaemolyticus
The entries below come with measured Kd values attached.

See these solved cases before continuing.
EEDLPVTWR
≥ 20 µM
GRNSRFPDK
≥ 20 µM

Query: Report Kd for `ALSMGINTV` tested on HLA-B*40:01.
Response: ≥ 20 µM

###

biological target: HLA-B*27:03; test: IEDB peptide-MHC binding, purified MHC/direct/fluorescence; filed as Kd, often an IC50 or EC50 that approximates it; bounds were set here for any values at or beyond the usual limits of such assays; settings: source organism: Salmonella enterica subsp. enterica serovar Berta
Recorded Endpoint: Kd

Query: Please look up its Kd: `HQDDGQPRL`
Response: ≥ 20 µM

###

target: HLA-A*69:01; experiment: IEDB peptide-MHC binding, purified MHC/direct/fluorescence; filed as Kd, often an IC50 or EC50 that approximates it; bounds were set here for any values at or beyond the usual limits of such assays; conditions: source organism: Campylobacter jejuni RM1221
Recorded Endpoint: Kd

Query: Report Kd for `IYDYLRLLY` tested on HLA-A*69:01.
Response: ≥ 20 µM

###

molecular target: HLA-B*27:05; test: IEDB peptide-MHC binding, purified MHC/direct/fluorescence; filed as Kd, often an IC50 or EC50 that approximates it; bounds were set here for any values at or beyond the usual limits of such assays; conditions: source organism: Yersinia pestis
Recorded Endpoint: pKd
// pKd: -log10(molar conc.)

Query: Please look up its pKd: `SRWAISHWL`
Response: 7.69

###

molecular target: HLA-A*26:01; assay: IEDB peptide-MHC binding, purified MHC/competitive/radioactivity; filed as Kd, often an IC50 or EC50 that approximates it; bounds were set here for any values at or beyond the usual limits of such assays; conditions: source organism: Lassa virus Josiah
Recorded Endpoint: pKd
// pKd: -log10(molar conc.)

Query: Please look up its pKd: `DIMGIPYCNY`
Response: 6.27

###

molecular target: HLA-A*11:01; test: IEDB peptide-MHC binding, purified MHC/competitive/fluorescence; filed as Kd, often an IC50 or EC50 that approximates it; bounds were set here for any values at or beyond the usual limits of such assays; conditions: source organism: Influenza A virus (A/swine/Scotland/410440/94(H1N2))
Recorded Endpoint: pKd
// pKd: -log10(molar conc.)

Query: Please look up its pKd: `KVYKTYFEK`
Response: 8.33

###

biological target: HLA-A*30:01; test: IEDB peptide-MHC binding, purified MHC/direct/fluorescence; filed as Kd, often an IC50 or EC50 that approximates it; bounds were set here for any values at or beyond the usual limits of such assays; conditions: source organism: Mycobacterium tuberculosis str. Haarlem
Recorded Endpoint: Kd (nM)
Entry rule: numbers only, all in nM.

Query: Please look up its Kd: `RPKPDYSAM`
Response: 123

###

target: HLA-B*40:01; assay: IEDB peptide-MHC binding, purified MHC/direct/fluorescence; filed as Kd, often an IC50 or EC50 that approximates it; bounds were set here for any values at or beyond the usual limits of such assays; conditions: source organism: Corynebacterium glutamicum
Recorded Endpoint: Kd

Query: Please look up its Kd: `WPALSSIAA`
Response: ≥ 20 µM

###

target: HLA-B*45:01; experiment: IEDB peptide-MHC binding, purified MHC/competitive/radioactivity; filed as Kd, often an IC50 or EC50 that approximates it; bounds were set here for any values at or beyond the usual limits of such assays; conditions: source organism: Mammarenavirus tacaribeense
Recorded Endpoint: Kd (nM)
Entry rule: numbers only, all in nM.

Query: Report Kd for `AEFKSRFFVM` tested on HLA-B*45:01.
Response: 290

###

molecular target: HLA-A*03:01; assay: IEDB peptide-MHC binding, purified MHC/direct/fluorescence; filed as Kd, often an IC50 or EC50 that approximates it; bounds were set here for any values at or beyond the usual limits of such assays; settings: source organism: Pseudomonas aeruginosa UCBPP-PA14
Recorded Endpoint: Kd

Query: Please look up its Kd: `AYGSRFHEW`
Response: ≥ 20 µM

###

biological target: HLA-A*23:01; experiment: IEDB peptide-MHC binding, purified MHC/direct/fluorescence; filed as Kd, often an IC50 or EC50 that approximates it; bounds were set here for any values at or beyond the usual limits of such assays; conditions: source organism: Vibrio vulnificus
pKd: −log10 of the molar value.
Recorded Endpoint: pKd

Query: Please look up its pKd: `PHPVVVRTL`
Response: ≤ 4.70

###

target: HLA-A*02:16; assay: IEDB peptide-MHC binding, purified MHC/direct/fluorescence; filed as Kd, often an IC50 or EC50 that approximates it; bounds were set here for any values at or beyond the usual limits of such assays; settings: source organism: Araucaria virus
Recorded Endpoint: Kd

Query: Please look up its Kd: `AQKLATKPV`
Response: ≥ 20 µM

###

The entries below come with measured Kd values attached.
biological target: HLA-B*07:02; experiment: IEDB peptide-MHC binding, purified MHC/direct/fluorescence; filed as Kd, often an IC50 or EC50 that approximates it; bounds were set here for any values at or beyond the usual limits of such assays; details: source organism: Vibrio cholerae

AADFPGIAR
≥ 20 µM

Consider now this further sequence.
Query: Please look up its Kd: `KGHLPLLDK`
Response: ≥ 20 µM

###

biological target: HLA-B*58:01; assay: IEDB peptide-MHC binding, purified MHC/competitive/fluorescence; filed as Kd, often an IC50 or EC50 that approximates it; bounds were set here for any values at or beyond the usual limits of such assays; settings: source organism: Burkholderia mallei SAVP1
pKd: −log10 of the molar value.
Recorded Endpoint: pKd

Query: Please look up its pKd: `NVMDPMHGA`
Response: ≤ 5.30
